So I've got a bunch of molecules here, and I need their IC50 values.
Target Entity: CDK2/Cyclin E1 (Homo sapiens)
Measurement Description: CDK2/Cyclin E1 Caliper LabChip EZ Reader mobility shift assay
Format: biochemical
Set-up: purchased Eurofins 14-475
Condition Set: read-out: Caliper Assay (CDK2/CCNE1): IC50

Lab note: need IC50 for CC1(C)C[C@@H]1C(=O)N1CC2(CN(C(=O)c3cnn(Cc4ccccc4)c3)C[C@H]2C(=O)N[C@@H]2CCCN(CC3CCCCC3)C2)C1 on CDK2/Cyclin E1 (Homo sapiens), anyone have it?
1000 to 10000 nM

Quick one: CNC(=O)[C@@H](NC(=O)[C@@H]1CN(C(=O)Cc2cnn(C)c2)CC12CN(C(=O)[C@H]1CC1(C)C)C2)[C@@H](C)OCc1ccccc1
> 10000 nM

Quick one: C[C@@H]1C[C@H](C)CN(C(=O)[C@@H](NC(=O)C2CN(C(=O)c3cncs3)CC23CN(C(=O)[C@H]2CC2(C)C)C3)[C@@H](C)OCC2CCCCC2)C1 (stereo partly drawn)
≤ 10 nM

Quick one: CNC(=O)[C@@H](NC(=O)[C@@H]1CN(C(=O)c2cnn(Cc3ccccc3)c2)CC12CN(C(=O)C(C)(C)C1CC1)C2)[C@@H](C)OCc1ccccc1
1000 to 10000 nM

Quick one: Cc1ccc(CNC(=O)[C@@H]2CN(C(=O)c3cncs3)CC23CN(C(=O)[C@H]2CC2(C)C)C3)nn1
> 10000 nM

Quick one: CNC(=O)[C@@H](NC(=O)[C@@H]1CN(C(=O)c2cn[nH]c2)CC12CN(C(=O)[C@H]1CC1(C)C)C2)[C@@H](C)OCC1CCCCC1 [I-66A]
10 to 100 nM

Quick one: COc1ccc(CNC(=O)[C@@H]2CN(C(=O)c3cnn(Cc4ccccc4)c3)CC23CN(C(=O)[C@H]2CC2(C)C)C3)nn1
> 10000 nM

Quick one: CNC(=O)[C@@H](NC(=O)[C@@H]1CN(C(=O)c2cnn(Cc3ccccc3)c2)CC12CN(C(=O)[C@H]1CC1(C)C)C2)[C@@H](C)OCc1cccc(O)c1
100 to 1000 nM

Quick one: C[C@@H](OCC1CCC(F)(F)CC1)[C@H](NC(=O)[C@@H]1CN(C(=O)c2cncs2)CC12CN(C(=O)[C@H]1CC1(C)C)C2)C(=O)N1CCC(C(F)(F)F)CC1
≤ 10 nM

Quick one: CNC(=O)[C@@H](NC(=O)[C@@H]1CN(C(=O)c2cnn(Cc3ccccc3)c2)CC12CN(C(=O)[C@H]1CC1(C)C)C2)[C@@H](C)OCCC1CCCCC1 [I-125A]
≤ 10 nM

Quick one: CC1(C)C[C@@H]1C(=O)N1CC2(CN(C(=O)c3cnn(Cc4ccccc4)c3)C[C@H]2C(=O)NCC2CCCCO2)C1 (stereo partly drawn)
> 10000 nM

Quick one: Cc1ccc(CNC(=O)[C@@H]2CN(C(=O)c3cnc(Cc4ccccc4)s3)CC23CN(C(=O)[C@H]2CC2(C)C)C3)nn1
> 10000 nM

Quick one: CC1(C)C[C@@H]1C(=O)N1CC2(CN(C(=O)c3cnn(Cc4ccccc4)c3)C[C@H]2C(=O)NCc2nc3ccccc3o2)C1
1000 to 10000 nM

Quick one: C[C@@H](OCC1CCC(F)(F)CC1)[C@H](NC(=O)[C@@H]1CN(C(=O)c2cncs2)CC12CN(C(=O)[C@H]1CC1(C)C)C2)C(C)(C)O
≤ 10 nM

Quick one: CCCCC1CC1C(=O)N1CC2(CN(C(=O)c3cnn(Cc4ccccc4)c3)C[C@H]2C(=O)N[C@H](C(=O)NC)[C@@H](C)OCc2ccccc2)C1 (stereo partly drawn) [I-94A]
> 10000 nM

Quick one: C[C@@H](OCC1(C(F)(F)F)CC1)[C@H](NC(=O)[C@H]1CN(C(=O)c2cncs2)CC12CN(C(=O)[C@H]1CC1(C)C)C2)C(=O)N1CCCCC1
10 to 100 nM

Quick one: CNC(=O)[C@@H](NC(=O)[C@H]1CN(C(=O)c2cnn(Cc3ccccc3)c2)CC12CN(C(=O)C1(CCF)CC1)C2)[C@@H](C)OCc1ccccc1 [I-117B]
> 10000 nM

Quick one: CNC(=O)[C@@H](NC(=O)[C@@H]1CN(C(=O)C2CCNC2)CC12CN(C(=O)[C@H]1CC1(C)C)C2)[C@@H](C)OCc1ccccc1 (stereo partly drawn) [I-70A]
> 10000 nM

Quick one: C[C@@H](OCC1CCCCC1)[C@@H](COCC1CCCCC1)NC(=O)[C@@H]1CN(C(=O)c2cncs2)CC12CN(C(=O)[C@H]1CC1(C)C)C2
≤ 10 nM

Quick one: CNC(=O)[C@@H](NC(=O)[C@H]1CN(C(=O)c2cnco2)CC12CN(C(=O)[C@H]1CC1(C)C)C2)[C@@H](C)OCc1ccccc1 [I-39B]
> 10000 nM

Quick one: Cc1ccc(CNC(=O)[C@@H]2CN(C(=O)c3cnn(Cc4ccccc4)c3)CC23CN(C(=O)[C@H]2CC2(C)C)C3)cn1
> 10000 nM

Quick one: CNC(=O)[C@@H](NC(=O)[C@@H]1CN(C(=O)c2cnn(Cc3ccc(F)cc3)c2)CC12CN(C(=O)[C@H]1CC1(C)C)C2)[C@@H](C)OCC1CCC(F)(F)CC1
≤ 10 nM

Quick one: CNC(=O)[C@@H](NC(=O)[C@H]1CN(C(=O)c2cnc(C(C)(C)C)s2)CC12CN(C(=O)[C@H]1CC1(C)C)C2)[C@@H](C)OCC1CCCCC1 [I-229B]
> 10000 nM

Quick one: CNC(=O)[C@@H](NC(=O)[C@@H]1CN(C(=O)c2cnn(Cc3ccccc3)c2)CC12CN(C(=O)[C@H]1CC1(C)C)C2)[C@@H](C)OCC(F)(F)F
1000 to 10000 nM

====

So I've got a bunch of compounds here, and I need their pIC50 values.
Target Entity: CDK2/Cyclin E1 (Homo sapiens)
Measurement Description: CDK2/Cyclin E1 Caliper LabChip EZ Reader mobility shift assay
Type: biochemical
Design: purchased Eurofins 14-475
Condition Set: read-out: Caliper Assay (CDK2/CCNE1): IC50
pIC50: −log10 of the molar value.

Field request: pIC50 | item: CNC(=O)[C@@H](NC(=O)[C@@H]1CN(C(=O)c2cnn(Cc3ccccc3)c2)CC12CN(C(=O)[C@H]1CC1(C)C)C2)[C@@H](C)OC[C@H]1CC[C@@H](O)CC1
7.00 to 8.00

Quick one: C[C@@H](OCC1CCCCC1)[C@H](NC(=O)C1CN(C(=O)C2CCC(=O)N(C)C2)CC12CN(C(=O)[C@H]1CC1(C)C)C2)C(=O)N1CCCCC1 (stereo partly drawn)
5.00 to 6.00

Quick one: C[C@@H]1C[C@H](C)CN(C(=O)[C@@H](NC(=O)C2CN(C(=O)c3cnn(Cc4ccccc4)c3)CC23CN(C(=O)[C@H]2CC2(C)C)C3)[C@@H](C)OCC2CCCCC2)C1 (stereo partly drawn)
7.00 to 8.00

Quick one: C[C@@H](OCC1CCC(F)(F)CC1)[C@H](NC(=O)[C@@H]1CN(C(=O)c2cncs2)CC12CN(C(=O)[C@H]1CC1(C)C)C2)C(=O)N1CCC(C)(C)CC1
≥ 8.00

Quick one: CO[C@H](C)[C@H](NC(=O)[C@@H]1CN(C(=O)c2cnn(Cc3ccccc3)c2)CC12CN(C(=O)[C@H]1CC1(C)C)C2)C(=O)N1CCC(CN)CC1
5.00 to 6.00

Quick one: CNC(=O)[C@@H](NC(=O)[C@@H]1CN(C(=O)c2cnn(Cc3ccccc3)c2)CC12CN(C(=O)[C@H]1CC1(C)C)C2)[C@@H](C)OCC(C)C [I-137A]
6.00 to 7.00

Quick one: CNC(=O)[C@@H](NC(=O)[C@@H]1CN(C(=O)c2cnn(Cc3ccccc3)c2)CC12CN(C(=O)[C@H]1CC1(C)C)C2)[C@@H](C)OCC1CCC(F)(F)CC1
≥ 8.00

Quick one: CNC(=O)[C@@H](NC(=O)[C@H]1CN(C(=O)c2cnn(Cc3ccccc3)c2)CC12CN(C(=O)Cc1ccccc1)C2)[C@@H](C)OCc1ccccc1 [I-25B]
< 5.00

Quick one: CC(C)(O)C(NC(=O)[C@@H]1CN(C(=O)c2cnco2)CC12CN(C(=O)[C@H]1CC1(C)C)C2)c1cccc(C2CCOCC2)n1 (stereo partly drawn)
< 5.00

Quick one: CNC(=O)[C@@H](NC(=O)[C@H]1CN(C(=O)c2cnn(Cc3ccccc3)c2)CC12CN(C(=O)CC1(CO)CC1)C2)[C@@H](C)OCc1ccccc1 [I-92B]
< 5.00

Quick one: CNC(=O)[C@@H](NC(=O)[C@H]1CN(C(=O)c2cn[nH]c2)CC12CN(C(=O)[C@H]1CC1(C)C)C2)[C@@H](C)OCC1CCCCC1 [I-66B]
5.00 to 6.00

Quick one: CC1(C)C[C@@H]1C(=O)N1CC2(CN(C(=O)c3cncs3)C[C@H]2C(=O)NCc2cccc(C3CCCCC3)n2)C1
7.00 to 8.00

Numbers sourced from patent US20240174680A1.
